Hey, just so you know, these numbers are from paper PMC5540273.

- Tested on: CIT
- runParameters: concentration: 1 μM, replicates: in singlicate; n = 1
parameter: %Inh (%)
API: value field is a number in %; no unit string.

Query: # returns recorded %Inh (system: CIT) for COc1cc2ncn(-c3cc(OCc4ccc(S(C)(=O)=O)cc4)c(C(N)=O)s3)c2cc1OC [GW869979]
Reply: 29

Query: # returns recorded %Inh (system: CIT) for COc1ccc(-c2cc3c(C)nc(N)nc3n([C@H]3CC[C@H](OCCO)CC3)c2=O)cn1
Reply: 0

Query: # returns recorded %Inh (system: CIT) for CC(C)(C)c1ccc(C(=O)Nc2cn3cc(-c4ccccc4)ccc3n2)cc1
Reply: 2

Query: # returns recorded %Inh (system: CIT) for CCc1ccc(-c2ccc3c(c2)-c2nn(C)cc2S(=O)(=O)N3C)cc1
Reply: 0

Query: # returns recorded %Inh (system: CIT) for COc1cc(Nc2nccc(N3CCC(NC(=O)C4COc5ccccc5O4)C3)n2)cc(OC)c1OC (centres unmarked) [GSK1379761]
Reply: 33

Query: # returns recorded %Inh (system: CIT) for COc1ccc(-n2cnc3c(N)ncnc32)cc1 [SKF-97236]
Reply: 19

Query: # returns recorded %Inh (system: CIT) for Cl.c1ccc(Cn2cnc3cc(Nc4ncnc5ccccc45)ccc32)cc1 [GW272142]
Reply: 0

Query: # returns recorded %Inh (system: CIT) for O=C(NCc1cccs1)c1cc(C(=O)c2c(Cl)cccc2Cl)c[nH]1 [GW823670]
Reply: 16

Query: # returns recorded %Inh (system: CIT) for Nc1n[nH]c2ncc(-c3ccccc3)cc12 [SB-517081]
Reply: 29

Query: # returns recorded %Inh (system: CIT) for CCC(=O)c1c(-c2ccccc2)c2cc(Cl)ccc2c(=O)n1Cc1cc(S(C)(=O)=O)n(CC(N)=O)n1
Reply: 11

Query: # returns recorded %Inh (system: CIT) for COc1cccc(-n2cnc3c(N)ncnc32)c1 [SKF-97416]
Reply: 8

Query: # returns recorded %Inh (system: CIT) for O=C(NCCNc1ccnc(Nc2ccc(F)cc2)n1)Nc1ccc2c(c1)OCO2 [GSK1379882]
Reply: 44

Query: # returns recorded %Inh (system: CIT) for Fc1cccc(CSc2nnc(-c3ccc4c(c3)CCO4)o2)c1
Reply: 0

Query: # returns recorded %Inh (system: CIT) for CN(C)c1cc(-c2ccc3c(N)n[nH]c3c2)nc(N)n1 [GSK2219329]
Reply: 23

Query: # returns recorded %Inh (system: CIT) for COc1cc2nccc(Nc3ccc(OCc4ccc(NC(C)=O)cc4)cc3)c2cc1OC.Cl [GW440135]
Reply: 0

Query: # returns recorded %Inh (system: CIT) for CCn1c(-c2ccoc2)nc2cnccc21 [SB-733887]
Reply: 19

Query: # returns recorded %Inh (system: CIT) for Cc1nnc(-c2ccc(C)c(-c3ccc(C(=O)O)cc3)c2)o1 [GW608005]
Reply: 32

Query: # returns recorded %Inh (system: CIT) for O=c1cc(N2CCOCC2)nc2n(Cc3ccc(F)c(Cl)c3)ccn12 [GSK2297099]
Reply: 4

Query: # returns recorded %Inh (system: CIT) for CCC(=O)c1c(-c2ccccc2)c2cc(Cl)ccc2c(=O)n1Cc1cc(S(C)(=O)=O)n(CCC(C)(C)O)n1
Reply: 2

Query: # returns recorded %Inh (system: CIT) for CN1C(=O)C(Nc2cc(Cl)c(O)c(Cl)c2)=C(c2ccc(Cl)cc2)C1=O [SB-404321]
Reply: 38

Query: # returns recorded %Inh (system: CIT) for O=C(Nc1ccc2c(c1)OCO2)NC1CCN(c2ccnc(NCc3ccc(F)cc3)n2)CC1 [GSK1379859]
Reply: 0

Query: # returns recorded %Inh (system: CIT) for COc1cc2ncn(-c3cc(OCCCc4ccccc4)c(C(N)=O)s3)c2cc1OC [GSK205189]
Reply: 10

Query: # returns recorded %Inh (system: CIT) for COc1ccc(Nc2nccc(N3CCC(NS(=O)(=O)c4ccc(NC(C)=O)cc4)C3)n2)cc1 (centres unmarked) [GSK1379729]
Reply: 22

Query: # returns recorded %Inh (system: CIT) for CCC(=O)c1c(-c2ccccc2)c2cc(Cl)ccc2c(=O)n1Cc1cc(C(=O)NC2CC2)n(C)n1
Reply: 7

Query: # returns recorded %Inh (system: CIT) for COc1ccc(CNC(=O)NC2CCN(c3ccnc(Nc4ccc(F)cc4)n3)C2)cc1 (centres unmarked) [GSK1379706]
Reply: 9

Query: # returns recorded %Inh (system: CIT) for O=C(Nc1n[nH]c2cc(-c3ccccc3F)ccc12)C1CC1 [SB-733371]
Reply: 7

Query: # returns recorded %Inh (system: CIT) for Nc1ncnc2c1ncn2-c1ccc(Cl)cc1 [AH2635]
Reply: 26

Query: # returns recorded %Inh (system: CIT) for OCCCNc1nccc(-c2c(-c3cccc(C(F)(F)F)c3)nn3cc(C(F)(F)F)ccc23)n1 [GW630813]
Reply: 0

Query: # returns recorded %Inh (system: CIT) for Cc1cc(Nc2nc(-c3cccc(C)n3)nc3ccccc23)ccn1 [GW872411];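 further: KINOMEscan kinase panel screen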
Reply: 0
